# Target entity: T1, Nrd1 307-491 WT (Saccharomyces cerevisiae, UniProt P53617 307-491)
# T1 sequence: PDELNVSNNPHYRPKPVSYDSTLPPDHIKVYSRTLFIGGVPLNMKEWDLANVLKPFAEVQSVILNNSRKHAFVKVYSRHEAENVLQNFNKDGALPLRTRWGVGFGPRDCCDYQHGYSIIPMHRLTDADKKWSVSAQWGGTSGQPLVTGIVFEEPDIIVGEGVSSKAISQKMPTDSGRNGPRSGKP
# Measurement protocol: fluorescence anisotropy; FA: 10 nM RNA, 50 mM sodium phosphate pH 8, 150 mM NaCl, 10 mM beta-mercaptoethanol, 20 C (protein stock in 300 mM NaCl); NMR: same buffer with 300 mM NaCl, 20
# Particulars: protein: recombinant; tags: C-terminal His6; label: 5' fluorescein or TAMRA (FA); unlabeled (NMR)
Provide the recorded pKd for the entries that follow.
Numbers only, as −log10 of the molar value.

GCGGGGC (ssRNA); 5.01

Pending binder:
Challenge: Record request: pKd value, item GUAA (ssRNA)
Response given: 5.00

Measured values drawn from paper PMC4081072 for this set.
